# Test system: SK-OV-3 ovarian
# protocol text: NCI tumour cell line growth inhibition, 48 h; in the data active = GI50 below about 0.43 µM; inactive = the rest
Labels: 1 (yes) = active, 0 (no) = inactive

{"compound": "CC(=O)OCC(=O)O[C@@H]1C[C@]2(C(C)C)O[C@@]1(C)[C@@H]1CC[C@@H](C)[C@H]1[C@@H]2OC(=O)/C=C/c1ccccc1", "group label": "0 (no)"}
{"compound": "O=C(Nc1ccc(Oc2ccc3nc(NC(=O)c4ccccc4)[nH]c3c2)cc1)Nc1cc(C(F)(F)F)ccc1F", "group label": "0 (no)"}
{"compound": "C=CC(C=O)C1(O)CCOC(=O)/C1=C\\N (stereo unspecified)", "group label": "0 (no)"}
{"compound": "CO/N=C(\\C)c1cccc(Nc2cc(-c3ccccc3)nc3c(O)cccc23)c1", "group label": "0 (no)"}
{"compound": "CC[C@H](Nc1nc(N)nc(C)c1C#N)c1nc2cccc(NCc3ccc(C(=O)NO)cc3)c2c(=O)n1-c1ccccc1", "group label": "0 (no)"}
{"compound": "Cn1cc(C2=C(c3cccnc3)C(=O)NC2=O)c2ccccc21", "group label": "0 (no)"}
{"compound": "COc1ccc2nc3cc(Cl)ccc3c(N3CCN(c4ccnc(N5CCOCC5)n4)CC3)c2c1", "group label": "0 (no)"}
{"compound": "O=C(CF)N(O)c1ccc(/C=C/c2ccccc2)cc1", "group label": "0 (no)"}
{"compound": "CCOC(=O)/C=C/c1cc2cc(-c3csc4ccccc34)ccc2[nH]1", "group label": "0 (no)"}
{"compound": "CNC(=O)c1ccc2cc(C3(O)CCn4cncc43)ccc2c1 (stereo unspecified)", "group label": "0 (no)"}
{"compound": "CN(C)c1ccc(/C=C(\\C#N)c2nc3ccccc3n2C)cc1", "group label": "0 (no)"}
{"compound": "CC(=O)O[C@H](C[C@H](C(C)C)N(C)C(=O)[C@@H](NC(=O)[C@H]1CCCCN1C)C(C)C)c1nc(C(=O)N[C@@H](Cc2ccccc2)C[C@H](C)C(=O)O)c(C(C)C)s1", "group label": "1 (yes)"}
{"compound": "C1C[S][Ge]2([S]CCO1)[S]CCOCC[S]2", "group label": "0 (no)"}
{"compound": "O=C(Nc1ccc(CN2CCOCC2)cc1)c1[nH]ncc1Nc1ncnc2sccc12", "group label": "1 (yes)"}
{"compound": "Cc1cnc(/C=N\\NC(N)=S)c2cccc(N)c12", "group label": "0 (no)"}
{"compound": "CC/C=C\\C/C=C\\C[C@H](O)C/C=C1/C(=O)C=C[C@@H]1C/C=C\\CCCC(=O)O", "group label": "0 (no)"}

---

Listed here: items and their measured TGI.
# Tested on: DMS 114 small cell lung
# protocol text: NCI tumour cell line growth inhibition, 48 h

{"compound": "O=C1CCCC/C1=C1\\C(=O)Nc2cc(F)ccc21", "TGI": "> 100 µM"}
{"compound": "O=C(c1cc2ccccc2o1)N(Cc1ccccc1)c1ccccc1", "TGI": "44.2 µM"}
{"compound": "COc1ccc2c3c(n(Cc4ccccc4)c(=O)c2c1)-c1cc(OC)c(OC)cc1C3C (stereo not given)", "TGI": "> 89.2 µM"}
{"compound": "CCOC(=O)Nc1cc2c(c(N)n1)N=C(c1ccccc1)[C@H](C)N2", "TGI": "< 0.0001 µM"}
{"compound": "COc1ccc(N=Nc2c(-c3ccccc3)nn(C(=O)CC(=O)Nc3cccc(Cl)c3)c2-c2ccccc2)cc1", "TGI": "> 100 µM"}

---

Examples of molecules with documented TGI follow.
# Tested on: SNB-78 CNS
# protocol text: NCI tumour cell line growth inhibition, 48 h
experimental readout: TGI

{"molecule": "CCOC(=O)C1=C(O)CSC1=Nc1ccccc1", "target of assay": "SNB-78 CNS", "obs value": "> 100 µM"}
{"molecule": "O=C1N(c2ccccc2)C(=O)C2(SC=NN2Cc2ccccc2)N1c1ccccc1 (stereo unspecified)", "target of assay": "SNB-78 CNS", "obs value": "> 100 µM"}
{"molecule": "CCOC(=O)c1cc2c(nc1N)-c1ncccc1CC2", "target of assay": "SNB-78 CNS", "obs value": "> 100 µM"}
{"molecule": "CC1(C)CC(=O)C2=C(C1)S/C(=C1/SC3=C(S1)C(=O)CC(C)(C)C3)S2", "target of assay": "SNB-78 CNS", "obs value": "> 251 µM"}
{"molecule": "Cc1ccc(C[P+]2(c3ccccc3)CCCCC2)cc1", "target of assay": "SNB-78 CNS", "obs value": "92.4 µM"}
{"molecule": "C=C1CC[C@@H](Br)C(C)(C)[C@]12CCC(C)(O)C(Cl)C2 (stereo partly specified)", "target of assay": "SNB-78 CNS", "obs value": "> 100 µM"}
{"molecule": "COc1ccc2c3c(n(Cc4ccccc4)c(=O)c2c1)-c1cc(OC)c(OC)cc1C3C (stereo unspecified)", "target of assay": "SNB-78 CNS", "obs value": "> 100 µM"}
{"molecule": "N#C/C(=C\\c1ccc(O)c(O)c1)C(=O)NC1CCC(CC2CCC(NC(=O)/C(C#N)=C/c3ccc(O)c(O)c3)CC2)CC1 (stereo unspecified)", "target of assay": "SNB-78 CNS", "obs value": "5.37 µM"}
{"molecule": "C1C[S][Ge]2([S]CCO1)[S]CCOCC[S]2", "target of assay": "SNB-78 CNS", "obs value": "> 100 µM"}
{"molecule": "O=C(N/C(=C\\c1cccc([N+](=O)[O-])c1)c1nc2[nH]c(=S)[nH]c(=O)c2[nH]1)c1ccccc1", "target of assay": "SNB-78 CNS", "obs value": "> 100 µM"}
{"molecule": "CC(O)C(N=Cc1nc(-c2ccccc2)oc1O)C(=O)O (stereo unspecified)", "target of assay": "SNB-78 CNS", "obs value": "> 100 µM"}

---

# Tested on: ACHN renal
# protocol text: NCI tumour cell line growth inhibition, 48 h
TGI overview
experimental readout: TGI (µM)

{"compound": "COc1ccc(/C=C2\\N=C3Sc4c(nc[nH]c4=O)N3C2=O)cc1", "experimental readout": "TGI", "qual": ">", "obs value": 100}
{"compound": "C=C1CC[C@@H](Br)C(C)(C)[C@]12CCC(C)(O)C(Cl)C2 (stereo not given in full)", "experimental readout": "TGI", "qual": "=", "obs value": 36.4}
{"compound": "CCOC(=O)[C@H]1Nc2c(cccc2[N+](=O)[O-])[C@H]2OCC[C@@H]12", "experimental readout": "TGI", "qual": ">", "obs value": 100}
{"compound": "COc1ccc2c(c1)[n+]([O-])c(-c1ccccc1)c(N)[n+]2[O-]", "experimental readout": "TGI", "qual": ">", "obs value": 100}
{"compound": "COc1cc2nccc(Oc3ccc(NC(=O)C4(C(=O)Nc5ccc(F)cc5)CC4)cc3)c2cc1Oc1ccc(N)cn1", "experimental readout": "TGI", "qual": "=", "obs value": 10.2}

---

# System: UACC-62 melanoma
# protocol text: NCI tumour cell line growth inhibition, 48 h; in the data active means GI50 below about 0.43 µM; inactive means the rest
Labels: label 1 (active), label 0 (inactive)

{"compound": "CN(C)c1ncnc2c1nnn2C1OC(CO)C(O)C1O (centres undefined)", "group label": "label 1"}
{"compound": "CCOC(=O)/C=C/c1cc2cc(-c3csc4ccccc34)ccc2[nH]1", "group label": "label 0"}
{"compound": "O=C(Nc1ccc(Cl)cc1F)c1cc(I)ccc1O", "group label": "label 0"}
{"compound": "C=CC[P+](c1ccccc1)(c1ccccc1)c1ccccc1", "group label": "label 0"}
{"compound": "Cc1cccc(C(=O)/C=C/SC(=NC#N)SCc2ccccc2)c1", "group label": "label 0"}
{"compound": "O=C(Nc1ccc(Oc2ccc3nc(NC(=O)c4ccccc4)[nH]c3c2)cc1)Nc1cc(C(F)(F)F)ccc1F", "group label": "label 0"}
{"compound": "CC(=O)OCC(=O)O[C@@H]1C[C@]2(C(C)C)O[C@@]1(C)[C@@H]1CC[C@@H](C)[C@H]1[C@@H]2OC(=O)/C=C/c1ccccc1", "group label": "label 0"}
{"compound": "CC/C=C\\C/C=C\\C[C@H](O)C/C=C1/C(=O)C=C[C@@H]1C/C=C\\CCCC(=O)O", "group label": "label 0"}
{"compound": "Cn1cc(C2=C(c3cccnc3)C(=O)NC2=O)c2ccccc21", "group label": "label 0"}

---

# System: NCI-H460 lung
# protocol text: NCI tumour cell line growth inhibition, 48 h
Quick reference: TGI of the listed items.

{"compound": "O=C1C(c2c(O)[nH]c3ccc(S(=O)(=O)O)cc23)=Nc2ccc(Br)cc21", "TGI": "> 100 µM"}
{"compound": "CN(C)c1ccc(/C=C2\\N=C(c3ccc([N+](=O)[O-])cc3)OC2=O)cc1", "TGI": "> 100 µM"}
{"compound": "CCC1CN2CCC1CC2 (centres undefined)", "TGI": "> 100 µM"}
{"compound": "C/C(=C\\C1=C(Cl)C(=O)c2ccccc2C1=O)C(=O)O", "TGI": "45.1 µM"}
{"compound": "O=C(O)NCc1ccccc1 (tested in a mixture with another compound)", "TGI": "> 87.1 µM"}
{"compound": "O=C(c1ccco1)c1nc2cc(F)ccc2[n+]([O-])c1C(F)(F)F", "TGI": "> 100 µM"}
{"compound": "CCN1C(NN)=NS(=O)(=O)c2ccccc21", "TGI": "> 100 µM"}
{"compound": "C=CC(C=O)C1(O)CCOC(=O)/C1=C\\N (centres undefined)", "TGI": "> 100 µM"}
{"compound": "Nc1ccc(N=Nc2ccc(-c3ccc(O)cc3)cc2)c2ccc(S(=O)(=O)O)cc12", "TGI": "> 100 µM"}
{"compound": "COc1cccc2c1-c1c(c3ccc([N+](=O)[O-])cc3c(=O)n1CCCCl)C2=O", "TGI": "> 50 µM"}
{"compound": "COc1ccc(-c2nn(-c3cccc(NC(=O)c4ccc5c(c4)OCCO5)c3)cc2-c2ccncc2)cc1Cl", "TGI": "15.6 µM"}
{"compound": "Cn1cc(-c2cnc(-c3cn(C)c4ccccc34)cn2)c2ccccc21", "TGI": "> 100 µM"}
{"compound": "Fc1ccc(OCc2nc3cc(C(F)(F)F)ccc3nc2-c2ccccc2)cc1", "TGI": "> 100 µM"}
{"compound": "Cn1cc(C2=C(c3cccnc3)C(=O)NC2=O)c2ccccc21", "TGI": "> 25 µM"}
{"compound": "CN=C(NC#N)NCCSCc1nc[nH]c1C", "TGI": "> 100 µM"}
{"compound": "CCC1(CCSC(=N)N)C(=O)NC(=O)NC1=O", "TGI": "> 100 µM"}
{"compound": "Cc1nc2ccccc2c(=O)n1NC(=O)c1ccc([N+](=O)[O-])cc1", "TGI": "> 100 µM"}
{"compound": "CN(C)c1ncnc2c1nnn2C1OC(CO)C(O)C1O (centres undefined)", "TGI": "> 100 µM"}
{"compound": "O=C(CN1CCN(c2ccc(Cl)cc2)CC1)N1CCN(c2nnc(-c3ccc(Cl)cc3)c(-c3ccc(Cl)cc3)n2)CC1", "TGI": "> 100 µM"}
{"compound": "CCCCCCCCCCCCCCCC(=O)OCC1CCCN2CCCCC12 (centres undefined)", "TGI": "> 100 µM"}
{"compound": "C/C(=N\\N=C(\\[Se])N1CCN(c2ccccn2)CC1)c1ccccn1", "TGI": "16 µM"}
{"compound": "O=C(NNc1ccnc2cc(Cl)ccc12)/C(=C\\c1ccccc1Cl)NC(=O)c1ccccc1", "TGI": "> 100 µM"}
{"compound": "O=C1C(Cl)=C(N2C(=O)CCCC2=O)C(=O)c2ccccc21", "TGI": "27.8 µM"}
{"compound": "CCCc1c[nH]c(-c2ccc(-c3cc(CCC)c(C=O)[nH]3)s2)c1", "TGI": "16.9 µM"}
{"compound": "O=C(O)Cc1cccc2c1Oc1ccccc1S2", "TGI": "> 100 µM"}
{"compound": "NC(=S)Nc1cc(Cl)ccc1Cl", "TGI": "> 100 µM"}
{"compound": "O=C(O)CCSCc1ccc(I)cc1", "TGI": "> 100 µM"}
{"compound": "O=C1OCCC1C(O)C1c2ccccc2-c2ccccc21 (centres undefined)", "TGI": "> 100 µM"}
{"compound": "Oc1c(CN2CCCC2)cc(COCc2ccc(Br)cc2)c2cccnc12", "TGI": "2.01 µM"}
{"compound": "O=[N+]([O-])c1ccc2c(N3CCC(CCCC4CCN(c5ncnc6cc([N+](=O)[O-])ccc56)CC4)CC3)ncnc2c1", "TGI": "> 100 µM"}
{"compound": "CCOC(=O)C1=C(C)OC(=O)[C@@]2(OC)C=C(Cl)[C@@]12C", "TGI": "> 100 µM"}
{"compound": "CC(C)(C)c1[nH]cnc1/C=c1\\[nH]c(=O)/c(=C/c2ccccc2)[nH]c1=O", "TGI": "17.7 µM"}
{"compound": "CCCCCC[C@H]1CC(=O)C2CCCC[C@@]23CC[C@H](CCl)N13 (some centres undefined) (tested in a mixture with another compound)", "TGI": "> 100 µM"}
{"compound": "Cn1c(O)c(C(/C=C/c2ccccc2)=NCCN=C(/C=C/c2ccccc2)c2c(O)n(C)c(=O)n(C)c2=O)c(=O)n(C)c1=O", "TGI": "24.6 µM"}
{"compound": "COc1ccc(OC)c(C23CCCC(C2)N(C)CC3)c1 (centres undefined)", "TGI": "52 µM"}
{"compound": "Cc1cnc(/C=N\\NC(N)=S)c2cccc(N)c12", "TGI": "> 37.7 µM"}
{"compound": "COc1ccc(C(=O)C(C(=O)C(=O)Nc2ccc(Cl)c(Cl)c2)c2ccc(OC)cc2)cc1 (centres undefined)", "TGI": "> 100 µM"}
{"compound": "O=C(N/C(=C\\c1cccc([N+](=O)[O-])c1)c1nc2[nH]c(=S)[nH]c(=O)c2[nH]1)c1ccccc1", "TGI": "> 100 µM"}
{"compound": "Cc1ccc(C[P+]2(c3ccccc3)CCCCC2)cc1", "TGI": "> 100 µM"}
{"compound": "CSCCC(N)P(C)(=O)O (centres undefined)", "TGI": "> 100 µM"}
{"compound": "O=C(O)[C@@H]1CCC(=O)N1C(c1ccc2c(c1)OCO2)c1ccc2c(c1)OCO2", "TGI": "> 100 µM"}
{"compound": "CCC(=O)N1NC(=O)C(CC)(CC)C1=O", "TGI": "> 100 µM"}
{"compound": "C=CCC(CC=O)(C(=O)OCC)C(=O)OCC", "TGI": "> 100 µM"}
{"compound": "COc1cnc2c(c1)C(=O)c1c-2n(CCCN2CCC(O)CC2)c(=O)c2cc(F)ccc12", "TGI": "0.221 µM"}
